Would you mind telling me the reported IC50 of each entry?
organism: Felis catus; test: In vitro inhibition of HCO3- stimulated swelling in cat cerebrocortical tissue slice; assay type: functional; conditions: read-out: I 50
One number for each entry, in µM.

Here are 2 compounds. What values of IC50 were reported for them?
1. CC1(Cc2ccccc2)Cc2cc(OCC(=O)O)c(Cl)c(Cl)c2C1=O (racemic)
2. CC(=O)Nc1nnc(S(N)(=O)=O)s1 [ACETAZOLAMIDE]

1. 0.001
2. 2000

Recorded IC50 for C[C@]1(C2CCCC2)Cc2cc(OCCCC(=O)O)c(Cl)c(Cl)c2C1=O , please? 0.01

----------
experiment: Distribution coefficient (D %) between octanol and buffer of pH 7.4; assay type: physicochemical; conditions: octanol/water
// boundary case: Distribution equal to 30% maps to False; strictly smaller maps to True

Given the entry CCC(C)C(=O)c1ccc(OCC(=O)O)c(Cl)c1Cl (stereo not given) , would its reported Distribution be below 30%? False

Another molecule to look at: NS(=O)(=O)c1cc(C(=O)O)c(NCc2ccco2)cc1Cl [FUROSEMIDE] True

Another molecule to look at: C[C@@]1(C2CCCC2)Cc2cc(OCC(=O)O)c(Cl)c(Cl)c2C1=O False

Another molecule to look at: CCCCC1(C2CCCC2)Cc2cc(OCC(=O)O)c(Cl)c(Cl)c2C1=O (racemic) False

Another molecule to look at: CC(=O)Nc1nnc(S(N)(=O)=O)s1 [ACETAZOLAMIDE] True

----------
assay: Distribution coefficient (D %) between octanol and buffer of pH 7.4; type: physicochemical; settings: octanol/water
Recorded Endpoint: Distribution (%)
Give bare numbers, in %.

[
  {
    "Compound": "CCCC[C@]1(C2CCCC2)Cc2cc(OCC(=O)O)c(Cl)c(Cl)c2C1=O",
    "Recorded Endpoint": "Distribution",
    "U": "%",
    "Endpoint Value": 99
  }
]

Here are 3 compounds. What values of Distribution were reported for them?
1. CCC1(C2CCCC2)Cc2cc(OCCCC(=O)O)c(Cl)c(Cl)c2C1=O (racemic)
2. O=C(O)COc1cc2c(c(Cl)c1Cl)C(=O)C(CC1CCCC1)C2 (racemic)
3. CC1(C2CCCC2)Cc2cc(OCc3ccc(C(=O)O)cc3)c(Cl)c(Cl)c2C1=O (racemic)

1. 98.7
2. 97
3. 100

Recorded Distribution for CCCC1(C2CCCC2)Cc2cc(OCCCC(=O)O)c(Cl)c(Cl)c2C1=O (racemic) , please? 99.6

----------
Would you mind telling me the reported Distribution of each entry?
test: Distribution coefficient (D %) between octanol and buffer of pH 7.4; type: physicochemical; settings: octanol/water
Give bare numbers, in %.

Example results:
[
  {
    "Compound": "CC1(C2CCCC2)Cc2cc(OCCCC(=O)O)c(Cl)c(Cl)c2C1=O (racemic)",
    "Distribution [%]": 99
  },
  {
    "Compound": "C[C@]1(C2CCCC2)Cc2cc(OCC(=O)O)c(Cl)c(Cl)c2C1=O",
    "Distribution [%]": 90
  },
  {
    "Compound": "CC1(c2ccccc2)Cc2cc(OCCCC(=O)O)c(Cl)c(Cl)c2C1=O (racemic)",
    "Distribution [%]": 99
  },
  {
    "Compound": "C[C@@]1(C2CCCC2)Cc2cc(OCCCC(=O)O)c(Cl)c(Cl)c2C1=O",
    "Distribution [%]": 99
  },
  {
    "Compound": "C[C@]1(C2CCCC2)Cc2cc(OCCCC(=O)O)c(Cl)c(Cl)c2C1=O",
    "Distribution [%]": 99
  }
]

Here are 6 compounds. What values of Distribution were reported for them?
1. CC1(C2CCCC2)Cc2cc(OC/C=C/CC(=O)O)c(Cl)c(Cl)c2C1=O (racemic)
2. CC1(Cc2ccccc2)Cc2cc(OCC(=O)O)c(Cl)c(Cl)c2C1=O (racemic)
3. CCCC[C@@]1(C2CCCC2)Cc2cc(OCCCC(=O)O)c(Cl)c(Cl)c2C1=O
4. CCCC[C@]1(C2CCCC2)Cc2cc(OCCCC(=O)O)c(Cl)c(Cl)c2C1=O
5. C=C(CC)C(=O)c1ccc(OCC(=O)O)c(Cl)c1Cl [ETHACRYNIC ACID]
6. CCCC[C@@]1(C2CCCC2)Cc2cc(OCC(=O)O)c(Cl)c(Cl)c2C1=O

1. 98
2. 91
3. 99.9
4. 99.9
5. 61
6. 99

Here are 2 compounds. What values of Distribution were reported for them?
1. CC1(Cc2ccccc2)Cc2cc(OCCCC(=O)O)c(Cl)c(Cl)c2C1=O (racemic)
2. CC(C)(Oc1cc2c(c(Cl)c1Cl)C(=O)C(C)(C1CCCC1)C2)C(=O)O (racemic)

99.5
98.6

Here are 4 compounds. What values of Distribution were reported for them?
1. CC1(C2CCCC2)Cc2cc(OC3(C(=O)O)CCC3)c(Cl)c(Cl)c2C1=O (racemic)
2. CCC1(C2CCCC2)Cc2cc(OCC(=O)O)c(Cl)c(Cl)c2C1=O (racemic)
3. CC1(c2ccccc2)Cc2cc(OCC(=O)O)c(Cl)c(Cl)c2C1=O (racemic) [INDACRINONE]
4. CC1(C2CCCC2)Cc2cc(OCC(=O)O)c(Cl)c(Cl)c2C1=O (racemic)

1: 98.6; 2: 97; 3: 84; 4: 90

Here are 2 compounds. What values of Distribution were reported for them?
1. CCCCC1(C2CCCC2)Cc2cc(OCCCC(=O)O)c(Cl)c(Cl)c2C1=O (racemic)
2. O=C(O)COc1cc2c(c(Cl)c1Cl)C(=O)C(C1CCCC1)C2 (racemic)

1. 99.8
2. 83
